Tested on: TK-10 renal
Test: NCI tumour cell line growth inhibition, 48 h
assay.endpoint: TGI

// Input: COc1cc2c3cc1Oc1c(OC)c(OC)cc4c1C(Cc1ccc(O)c(c1)-c1cc(ccc1OC)CC3N(C)CC2)N(C)CC4 (stereo unspecified) . Output its TGI only. > 100 µM

Read off the recorded TGI for CCCCCCCCCC[N+](C)(C)C 3.27 µM

Tell me TGI reported for CCN(CC)CCOc1ccc(Cc2ccccc2)cc1 92.9 µM

Name the recorded TGI of the item COc1ccc2[nH]c3c(C)c4ncccc4c(C)c3c2c1 in your answer. > 10 µM

Identify measured TGI corresponding to N/C(=N\N=C\c1ccc(O)c(O)c1)NO > 100 µM

Please give the documented TGI of CCNC1=C(NC(=O)CCl)C(=O)c2ccccc2C1=O 31.5 µM

State its TGI for this molecule: O=P(O)(O)CC1OC(CO)C(O)C1O (stereo unspecified) > 100 µM

// fetch TGI given entry CC(=O)OCc1nnn2c1CCC2 > 100 µM

For the molecule COc1ccc(NC(=O)CC(=O)N2N=C(C)C(N=Nc3ccc(C(=O)O)cc3)C2=O)cc1 (stereo unspecified) , give its measured TGI value. > 100 µM

For the molecule CC(C)=CCc1c(O)c(C(=O)CC(C)C)c(O)c2c(-c3ccccc3)cc(=O)oc12 , report TGI. > 50 µM

Using the record for COC(=O)C1=C(O)c2cc3c(cc2[C@H](c2cc(OC)c(OC)c(OC)c2)C1)OCO3 , state its measured TGI. > 100 µM

###

System: HCT-116 colon
Assay: NCI tumour cell line growth inhibition, 48 h
assay.endpoint: TGI (µM)
Give the value in µM but do not write µM after it.

Return value of TGI for input CC(C)C1=CC23CCC4C(C)(C(=O)O)CCCC4(C)C2CC1C1C(=O)N(c2cccc(N4C(=O)C5C6CC7C8(C)CCCC(C)(C(=O)O)C8CCC7(C=C6C(C)C)C5C4=O)c2)C(=O)C13 (centres undefined) , no commentary. 21.3

Please report the measured TGI for CC(C)=CCc1c(O)c(C(=O)CC(C)C)c(O)c2c(-c3ccccc3)cc(=O)oc12 43.3

###

System: MDA-MB-231 breast
Assay: NCI tumour cell line growth inhibition, 48 h
Kindly return satisfied if reported TGI is no lower than 20 µM; return not satisfied if it is lower.

For this compound, is measured TGI 20 µM or higher? ClCCc1ccccc1CC1=NCCc2ccccc21 satisfied

Say whether C#CCN(Cc1nc2cc(C(F)(F)F)ccc2nc1-c1ccccc1)c1ccc(F)cc1 shows TGI of 20 µM or more. satisfied

Identify whether the reported TGI of the following compound is 20 µM or greater: COc1ncc(C#CC(=O)c2ccccc2)c(OC)n1 not satisfied

Evaluate O=C1c2ccccc2-c2c1c1ccc([N+](=O)[O-])cc1c(=O)n2CCCn1ccnc1 : TGI at minimum 20 µM? not satisfied

Item CC(C)Cc1ccc(C(C)/C=C2\CCC(CN3CCCCC3)C2=O)cc1 (stereo not given) with TGI of 20 µM or above? not satisfied

Determine whether this compound has TGI no lower than 20 µM: CCN(CCCl)c1cc(CN(C)C)cc(NC(=O)c2ccc(C(=O)Nc3ccccc3)cc2)c1 not satisfied

Form field: TGI at least 20 µM? Entry: O=c1oc2ccccc2n1CCCn1c(=O)oc2ccccc21 satisfied

Reported TGI at or above 20 µM? CCN(CC)CCC(=O)N1C/C(=C/c2ccccc2)C(=O)/C(=C\c2ccccc2)C1 not satisfied

hey, is TGI for this one >= 20 µM? COc1cc(OC2OC(CO)C(O)C(O)C2O)c2c(c1)O[C@@H]1[C@H](O)Oc3cc(OC)c(OC)cc3[C@]1(O)C2=O (stereo not given in full) satisfied

Is it the case that S=C(S)N1CCN(c2ccccc2)CC1 has TGI reaching or exceeding 20 µM? satisfied

###

So I've got a bunch of molecules here, and I need their TGI values.
System: HOP-92 NSCLC
Assay: NCI tumour cell line growth inhibition, 48 h

Give the observed TGI of CN1CCN(c2ccc(-c3cccc(CN4CCOCC4)c3)cc2NC(=O)c2c[nH]c(=O)cc2C(F)(F)F)CC1 for HOP-92 NSCLC. > 100 µM

Provide TGI, recorded with HOP-92 NSCLC, of COc1ccc(C(=O)N(Cc2cccnc2)C(=S)N(Cc2cccnc2)C(=O)c2ccc(OC)cc2)cc1 > 100 µM

Quote HOP-92 NSCLC TGI for entry COC(=O)[C@]1(Cc2ccc3ccccc3c2)CCCCCCN1C(=O)c1ccccc1 . > 52.9 µM

Provide the reported TGI (system: HOP-92 NSCLC) for Clc1nc(-c2ccccc2)nc(Cl)c1Cl 30.3 µM

Determine reported TGI for CCN(CC)CCC(=O)N1C/C(=C/c2ccccc2)C(=O)/C(=C\c2ccccc2)C1 ; test system: HOP-92 NSCLC. 17 µM

Output reported TGI of the molecule COc1c(Cl)[c]([Hg][O]C(C)=O)c(NCC(C)=O)c(OC)[c]1[Hg][O]C(C)=O on HOP-92 NSCLC. 6.8 µM

Recall the reported TGI of CCCCCC(=C/c1ccccc1)/C=N/N=C(N)N when tested on HOP-92 NSCLC. 3.19 µM

Supply TGI measured with HOP-92 NSCLC for C/C(=N\NS(=O)(=O)c1c(C)cc(C)cc1C)c1ccc[n+]([O-])n1 . 22.8 µM

Fill in TGI for C[C@]12CC/C(=N\O)C=C1CC[C@@H]1[C@@H]2CC[C@]2(C)C(=N/O)/C(=C/c3ccncc3)C[C@@H]12 tested with HOP-92 NSCLC. > 100 µM

###

Test system: OVCAR-8 ovarian
Assay: NCI tumour cell line growth inhibition, 48 h
Where a SMILES comes first, the peptide text is derived from it. [ ]: non-standard residue; d: D form. The star is where a group is joined. ξ: configuration not given here. ξPhe(4-NO2) = NC(Cc1ccc([N+](=O)[O-])cc1)C(=O)O; Boc = CC(C)(C)OC(=O)*
assay.endpoint: TGI

Identify the reported TGI for the following entry. C=CCN(c1cc(OC)c2c(c1[N+](=O)[O-])C(C)(SC)C(=O)N2)S(C)(=O)=O (centres undefined) > 100 µM

In one line, give reported TGI of the entry CCCc1n(Cc2ccc3ccccc3n2)cc[n+]1Cc1ccc2ccccc2c1 . 4.65 µM

State, in one line, measured TGI of Cc1ccc(-n2c3c(c4c(CN)c(O)ccc42)CCc2ccccc2C3=O)cc1 38 µM

Give the measured TGI for C(/C=C/Nc1ccc(-c2ccccc2)cc1)=Nc1ccc(-c2ccccc2)cc1 > 100 µM

Give recorded TGI. NC(Cc1c[nH]c2cc(F)ccc12)C(=O)O (centres undefined) > 2500 µM

Please look at this molecule and report its TGI: CCNC(=O)CNC(=O)C(Cc1ccc([N+](=O)[O-])cc1)NC(=O)OC(C)(C)C (centres undefined) (Boc-[ξPhe(4-NO2)]-Gly-NHEt) > 100 µM

Item COc1cc(/C=C2\Cc3ccccc3C2=O)cc(OC)c1OC : provide TGI > 100 µM

Respond only with TGI recorded for C=CC(C)(C)n1cc(C2=C(O)C(=O)C(c3c(CC=C(C)C)[nH]c4ccccc34)=C(O)C2=O)c2ccccc21 4.57 µM

Return TGI (reported value) for this molecule: COc1c(N2CCN(CN3C(=O)C(=O)c4ccccc43)C(C)C2)c(F)cc2c(=O)c(C(=O)O)cn(C3CC3)c12 (centres undefined) > 100 µM

###

System: BT-549 breast
Assay: NCI tumour cell line growth inhibition, 48 h
Where a SMILES comes first, the peptide text is derived from it. [ ]: non-standard residue; d: D form. The star is where a group is joined. ξ: configuration not given here. ξPhe(4-NO2) = NC(Cc1ccc([N+](=O)[O-])cc1)C(=O)O; Boc = CC(C)(C)OC(=O)*
Provide the recorded TGI for the entries that follow.

In one line, give reported TGI of the entry COC(=O)CCCNC(=O)C(=O)c1c(O)c(O)c(C(C)C)c2cc(C)c(-c3c(C)cc4c(C(C)C)c(O)c(O)c(C(=O)C(=O)NCCCC(=O)OC)c4c3O)c(O)c12 . 7.28 µM

Supply measured TGI of O=C(NNC(=O)c1c(Cl)c(Cl)c(Cl)c(Cl)c1-c1nc2ccccc2[nH]1)c1ccc(Cl)cc1 in your reply. > 100 µM

Identify measured TGI corresponding to CC(C)Cc1ccc(C(C)/C=C2\CCC(CN3CCCCC3)C2=O)cc1 (stereo not drawn) 34.4 µM

Check the records and state TGI for Clc1nc(-c2ccccc2)nc(Cl)c1Cl 35.6 µM

Please look at this compound and report its TGI: CCOC(=O)C(=O)C(/C(=N/N(C)C)C(=O)Nc1ccc(C)cc1C)c1nc2ccccc2[nH]c1=O (stereo not drawn) > 100 µM

Look up and report measured TGI for this entry: NC(Cc1c[nH]c2cc(F)ccc12)C(=O)O (stereo not drawn) > 2500 µM

Specify TGI for CCOC(=O)c1csc(-c2nc(CCNC(=O)c3ccccc3)sc2Cl)n1 and stop. > 100 µM

Give the value of TGI reported for the following: COc1ccc(-c2c3c(nc4[nH]c(=S)[nH]c(=S)c24)CCCC3)cc1OC > 100 µM

Please give measured TGI of the following entry: Cc1nn(C(=O)c2ccncc2)c2c1C(c1ccc([N+](=O)[O-])cc1)SC(N)=N2 (stereo not drawn) > 100 µM

Give reported TGI value for C=COC(=O)N1C2CCCC(Cl)(C(C)=O)C1CC2 (stereo not drawn) > 100 µM

Report TGI for C#CCN(Cc1nc2cc(C(F)(F)F)ccc2nc1-c1ccccc1)c1ccc(F)cc1 > 100 µM

State, in one line, measured TGI of Clc1nc(Nc2nc3ccccc3[nH]2)nc(Cl)c1-c1ccccc1 42.5 µM

# return recorded TGI for input C[C@]12CC/C(=N\O)C=C1CC[C@@H]1[C@@H]2CC[C@]2(C)C(=N/O)/C(=C/c3ccncc3)C[C@@H]12 > 100 µM

Please supply the value of reported TGI for the item O=C(Nc1nccs1)NS(=O)(=O)n1cnc2ccccc21 > 100 µM

Please report TGI for the following compound: C(/C=C/Nc1ccc(-c2ccccc2)cc1)=Nc1ccc(-c2ccccc2)cc1 > 100 µM

Entry CCNC(=O)CNC(=O)C(Cc1ccc([N+](=O)[O-])cc1)NC(=O)OC(C)(C)C (stereo not drawn) (Boc-[ξPhe(4-NO2)]-Gly-NHEt) needs its TGI filled in; supply it. > 100 µM

Report TGI, nothing else, for this compound: COc1cc(C(=O)N(C(=S)OC23CC4CC(CC(C4)C2)C3)c2ccccc2)cc(OC)c1OC > 100 µM

Name the recorded TGI of the item CC(C)C[C@H](NC(=O)CCc1cccc2ccccc12)B(O)O in your answer. 2.15 µM

Give reported TGI value for CN(/N=C/c1ccccc1C(=O)O)C1=NCCCCN1 > 100 µM

Identify TGI associated with the compound C=C(C)C1CC2=C(O1)C(=O)c1cccc(O)c1C2=O (stereo not drawn) 1.63 µM

Fill in TGI for record CC1(C)OC2COC(c3[nH]nc4c(=O)[nH]c(=O)[nH]c34)C2O1 (stereo not drawn) > 100 µM

Give the reported TGI for this compound. CCN(CC)c1ccc(/C=N/NC(=O)c2ccccc2Nc2ccnc(C(F)(F)F)c2)c(O)c1 > 100 µM

For the compound O=C(Nc1ccc(-n2ccc3c(NC(=O)c4ccccc4)nccc32)cc1)c1ccc(N2CCOCC2)c(C(F)(F)F)c1 , report TGI. > 67.9 µM

Please give measured TGI of the following entry: NS(=O)(=O)c1nnc(NC(=O)/C=C/C(=O)O)s1 > 100 µM

Provide only the value of recorded TGI for CC1(C)CC[C@]2(C(=O)O)CC[C@]3(C)C(=CC[C@@H]4[C@@]5(C)CC[C@H](OC6OC(CO)C(O)C(O)C6O)C(C)(C)[C@@H]5CC[C@]43C)[C@@H]2C1 (stereo partly drawn) 2.59 µM

Report TGI for O=C(Nc1ccc(N2CCNCC2)cn1)c1[nH]ncc1Nc1ncnc2sccc12 4.13 µM

Indicate its recorded TGI; the compound in question is CCCc1n(Cc2ccc3ccccc3n2)cc[n+]1Cc1ccc2ccccc2c1 1.43 µM

Give the reported TGI for this compound. N#CC1=C(S)N(C2OC(CO)C(O)C(O)C2O)C(c2ccccc2)=CC1c1cccs1 (stereo not drawn) 30.4 µM

Give TGI for the following compound: CN1CCN(Cc2ccc(NC(=O)c3cccc(C#Cc4c(N)ncc5ccc(F)cc45)c3)cc2C(F)(F)F)CC1 6.66 µM

Answer with reported TGI of Nc1nc(Cc2ccccc2)nc(Cc2ccccc2)c1-c1ccccc1 50.9 µM

Give the measured TGI for COc1ccc(Br)c(C=Nc2cccc3cc(OC)c(OC)cc23)c1 > 46 µM

Supply recorded TGI for Cc1cc(=O)n2nc(CSc3n[nH]c(=S)s3)sc2n1 here. > 100 µM

Provide measured TGI value, entry: Cc1ccc2c(=O)c(C(=O)NNC(=S)NC3CCCCC3)c[nH]c2n1 > 100 µM
